# system: furin (endogenous protease) in U20S cells (Homo sapiens)
# Construct: the endogenous protease cleaves GFP; endogenous in cells; host or cells: U2OS cells transduced with a BacMam reporter
# Sequence (P09958 108-794): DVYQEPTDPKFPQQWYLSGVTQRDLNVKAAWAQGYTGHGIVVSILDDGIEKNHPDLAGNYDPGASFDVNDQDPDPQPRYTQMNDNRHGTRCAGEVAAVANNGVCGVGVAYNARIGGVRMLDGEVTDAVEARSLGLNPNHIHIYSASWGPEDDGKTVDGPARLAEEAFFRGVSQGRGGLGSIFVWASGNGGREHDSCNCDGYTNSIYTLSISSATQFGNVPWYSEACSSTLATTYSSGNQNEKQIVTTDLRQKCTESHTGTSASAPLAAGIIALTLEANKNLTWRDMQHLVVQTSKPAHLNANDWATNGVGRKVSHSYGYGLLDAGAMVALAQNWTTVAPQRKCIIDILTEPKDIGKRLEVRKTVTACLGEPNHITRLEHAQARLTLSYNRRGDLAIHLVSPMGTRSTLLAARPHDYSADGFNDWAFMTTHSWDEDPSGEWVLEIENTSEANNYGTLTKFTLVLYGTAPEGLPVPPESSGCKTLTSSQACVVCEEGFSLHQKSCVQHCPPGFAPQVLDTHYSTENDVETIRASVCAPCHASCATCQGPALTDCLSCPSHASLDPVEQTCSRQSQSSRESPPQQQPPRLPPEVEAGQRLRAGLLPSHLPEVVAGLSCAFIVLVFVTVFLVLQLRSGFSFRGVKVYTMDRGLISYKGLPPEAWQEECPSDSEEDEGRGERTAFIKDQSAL
# protocolSummary: Furin cell-based assay (image-based, Golgi-targeted GFP with BMP10 furin/PCSK cleavage site);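 note: Read-out is mean GFP fluorescence of Golgi puncta per cell by high-content imaging, retained when furin inhibited, over an eleven-point 0.00017–10 µM series, four-parameter fit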
# conditionParameters: 24-hour incubation, read-out: furin golgi cell pXC50 (converted)
Structures can show the parent of a compound that is named as a salt.
log10 of EC50 by entry:
measuredAttribute: log10 of EC50 (log10 of the value in nM)

• CC(=O)NCC1CCN(Cc2cc(Oc3ccc(N4CCN(CCC(=O)O)CC4)nc3)nc(-c3cc(F)cc(Br)c3)c2)CC1 = 2.30
• CN1CCN(c2ccc(Oc3nc(-c4cc(Cl)cc(Cl)c4)cc(CN4CCC(CC(=O)O)CC4)c3F)nn2)CC1 = 1.40
• CNC(=O)OCC1CCN(Cc2cc(Oc3ccc(N4CCN(C[C@@H](C)O)CC4)nc3)nc(-c3cc(Cl)cc(Cl)c3)c2)CC1 = 1.00
• CC(C)(O)CN1CCN(c2cnc(Oc3cc(CN4CCC(CC(=O)O)CC4)cc(-c4cc(Cl)cc(Cl)c4)n3)cn2)CC1 = 1.80
• CC(O)CCN1CCN(c2ncc(Oc3cc(CN4CCC(CC(=O)O)CC4)cc(-c4cc(Cl)cc(Cl)c4)n3)cn2)CC1 (stereo not drawn) = 0.50
• CC(=O)N[C@H]1[C@@H]2CCN(Cc3cc(Oc4cnc(N5CCN(CCC(C)C(=O)O)CC5)nc4)nc(-c4cc(Cl)cc(Cl)c4)c3)CC[C@@H]21 (stereo partly drawn) = 0.70
• CS(=O)(=O)CC1CCN(Cc2cc(Oc3ccc(N4CCN(CCC(=O)O)CC4)nc3)nc(-c3cc(Cl)cc(Cl)c3)c2)CC1 = 1.90
• CC(C)N(c1cnc(N2CCN(C)CC2)nc1)c1cc(CN2CCC(CC(=O)O)CC2)cc(-c2cc(Cl)cc(Cl)c2)n1 = 2.40
• CC(=O)NCC1CCN(Cc2cc(Oc3ccc(N4CCN(CC(=O)O)CC4)nc3)nc(-c3cc(Cl)cc(Cl)c3)c2)CC1 [Example 10, hydrochloride] = 2.10
• CC(=O)NCC1CCN(Cc2cc(Oc3ccc(N4CCN(CC5(O)CC5)CC4)nc3)nc(-c3cc(Cl)cc(Cl)c3)c2)CC1 = 0.50
• CNC(=O)OCC1CCN(Cc2cc(Oc3cnc(N4CCN(CCC(=O)O)CC4)nc3)nc(-c3cc(Cl)cc(Cl)c3)c2)CC1 = 1.40
• CNCc1cc(Oc2ccc(N3CCC(N)CC3)nc2)cc(-c2cc(Cl)cc(Cl)c2)c1 [Example 100, hydrochloride] = 1.90
• Cc1c(CN2CCC(CC(=O)O)CC2)cc(-c2cc(Cl)cc(Cl)c2)nc1Oc1ccc(N2CCN(C)CC2)nc1 [Example 386, hydrochloride] = 1.00
• CC(=O)NCC1CCN(Cc2cc(Oc3cnc(N4CCN(C)CC4)cn3)nc(-c3cc(Cl)cc(Cl)c3)c2)CC1 = 0.40
• COC(=O)CCN1CCN(c2ccc(Oc3cc(CN4CCC(CNC(C)=O)CC4)cc(-c4cc(Cl)cc(Cl)c4)n3)cn2)CC1 = 1.10
• CC(=O)NCC1CCN(Cc2cc(Oc3cnc(N4CCN(CCC(=O)O)CC4)nc3)nc(-c3cc(Cl)cc(C(F)F)c3)c2)CC1 = 2.20
• CN1CCN(c2ncc(Oc3cc(CN4CC[C@@H]5[C@H](CC4)[C@H]5CC(=O)O)cc(-c4cc(Cl)cc(Cl)c4)n3)cn2)CC1 = 0.90
• COC(=O)NCC1CCN(Cc2cc(Oc3ccc(N4CCN(C)CC4)nc3)nc(-c3cc(Cl)cc(Cl)c3)c2)CC1 = 1.30
• CN1CCN(c2ncc(Oc3cc(CN4CCC(OCC(=O)O)C4)cc(-c4cc(Cl)cc(Cl)c4)n3)cn2)CC1 (stereo not drawn) = 2.80
• CN1CCN(c2ccc(Oc3cc(CN4CCC5(CC4)CNC(=O)OC5)cc(-c4cc(Cl)cc(Cl)c4)n3)cn2)CC1 = 0.70
• CC(=O)NCC1CCN(Cc2cc(Oc3cnc(N4CCN(CCC(C)S(C)(=O)=O)CC4)nc3)nc(-c3cc(Cl)cc(Cl)c3)c2)CC1 (stereo not drawn) = 0.40
• CN1CCN(c2ncc(Oc3cc(CN4CCC(CCS(N)(=O)=O)CC4)cc(-c4cc(Cl)cc(Cl)c4)n3)cn2)CC1 [Example 87, hydrochloride] = 0.60
• CN1CCN(c2ncc(Oc3cc(CN4CC[C@@H]5[C@H](CC4)[C@H]5C(=O)O)cc(-c4cc(Cl)cc(Cl)c4)n3)cn2)CC1 = 1.20
• CC(=O)NCC1CCN(Cc2cc(Oc3cnc(N4CCN(CCC(C)C(=O)O)CC4)nc3)nc(-c3cc(Cl)cc(Cl)c3)c2)CC1 (stereo not drawn) [Example 369, hydrochloride] = 0.70
